- Tested on: Spodoptera frugiperda
- EXPERIMENTAL DETAILS: Insecticidal activity test against Spodoptera frugiperda (leaf dip, maize seedlings)
- Type: in vivo
- TEST SETTINGS: Spodoptera frugiperda, foliar, 72 h, read-out: Mortality (%) against Spodoptera frugiperda, 3 d
Below is a list of entries, each paired with its recorded mortality at 0.1 ppm value.
Give a bare numeral; the unit % is implied.

Consider the worked cases shown below.
Prompt: GET /values?readout=mortality at 0.1 ppm&system=Spodoptera frugiperda&item= `O=C(Nc1c(Br)cc(C(F)(C(F)(F)F)C(F)(F)F)cc1OC(F)F)c1cccc(N(CC2CC2)C(=O)c2ccc(F)nc2)c1F`
Completion: 91.7

Prompt: GET /values?readout=mortality at 0.1 ppm&system=Spodoptera frugiperda&item= CCN(C(=O)c1ccncc1)c1cccc(C(=O)Nc2c(Br)cc(C(F)(C(F)(F)F)C(F)(F)F)cc2OC(F)F)c1F [KC2, reference compound]
Completion: 20.8

Prompt: GET /values?readout=mortality at 0.1 ppm&system=Spodoptera frugiperda&item= `O=C(Nc1c(Br)cc(C(F)(C(F)(F)F)C(F)(F)F)cc1C(F)(F)F)c1cccc(N(CC2CC2)C(=O)c2ccc(F)nc2)c1F`
Completion: 95.8

Next:
Prompt: GET /values?readout=mortality at 0.1 ppm&system=Spodoptera frugiperda&item= `O=C(Nc1c(Br)cc(C(F)(C(F)(F)F)C(F)(F)F)cc1OC(F)F)c1cccc(N(CC2CC2)C(=O)c2ccc(F)cc2)c1F`
Completion: 100

Prompt: GET /values?readout=mortality at 0.1 ppm&system=Spodoptera frugiperda&item= O=C(Nc1c(Br)cc(C(F)(C(F)(F)F)C(F)(F)F)cc1OC(F)(F)F)c1cccc(N(CC2CC2)C(=O)c2ccccc2)c1F [KC3, reference compound]
Completion: 4.17
